target: HLA-B*07:02; assay: IEDB peptide-MHC binding, purified MHC/competitive/radioactivity; filed as Kd, often an IC50 or EC50 that approximates it; bounds were set here for any values at or beyond the usual limits of such assays; details: source organism: SARS coronavirus Tor2
Reported pKd values follow for various sequences
Lab note — pKd values are minus log10 of concentrations in M.

1. VPMEKLKAL = 7.87

Prompt line: Tell me the measured pKd of LPFHRWHTMV , please.
Response line: 6.34

Prompt line: Tell me the measured pKd of GPQSNQRSA , please.
Response line: 6.44

----------
target: HLA-A*02:06; assay: IEDB peptide-MHC binding, purified MHC/competitive/radioactivity; filed as Kd, often an IC50 or EC50 that approximates it; bounds were set here for any values at or beyond the usual limits of such assays; conditions: source organism: Mammarenavirus whitewaterense
Experimental readout: Kd (µM)
Write the value in µM as a bare number.

Prompt line: Tell me the measured Kd of YCHGILLKDV , please.
Response line: 14.9
